# Target Or Test System: T1, Boi2, P39969
# T1 sequence (P39969 32-116, looked up): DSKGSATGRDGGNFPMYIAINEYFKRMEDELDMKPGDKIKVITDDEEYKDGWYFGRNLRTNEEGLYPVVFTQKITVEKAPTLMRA
# Experiment Summary: SPOT array
# Run Conditions: median of control spots 1161
Value Kind: SPOT intensity
Answer with the value's number alone.

Past entries and their recorded results:
# Binder, SPOT intensity
measured = [
    ("HGKRRAPLLLAKLDV", 0),
    ("RKQRSIPLSPIVPES", 1),
]

Req: Provide SPOT intensity value for the following binder: TPRLSLPRLPNKHHW
Resp: 0

Req: Provide SPOT intensity value for the following binder: RTIRKLPLMSLSEYF
Resp: 0
